- Tested on: OVCAR-5 ovarian
- Assay Details: NCI-60 one-dose screen, 48 h (100 = growth as untreated, 0 = no growth, -100 = all killed)
- Condition Description: 10 µM unless noted
About 83,000 compounds went through this panel and 20% of them were active in at least one assay; those are over-represented in the sample as a whole.
Reported growth values follow for various compounds
Value Type: growth (%)

Compound: COc1cc(OC)c(/C=C/c2cc[n+](C)c3ccccc23)c(OC)c1
Numeric Readout: 49.4
//
Compound: COc1cnc2c(c1)C(=O)c1c-2n(CCCN2CCNCC2)c(=O)c2cc([N+](=O)[O-])ccc12
Numeric Readout: -77.9
//
Compound: C=C1CC[C@@H]2[C@](C)(COC(C)=O)[C@H](OC(C)=O)CC[C@@]2(C)[C@@H]1CC(NCc1ccc(F)cc1)C1=CCOC1=O (some centres undefined)
Numeric Readout: 99
//
Compound: O=C(O)c1ccccc1Nc1cccc(S(F)(F)(F)(F)F)c1
Numeric Readout: 115
//
Compound: O=c1c2cccc3c(Nc4ccccn4)ccc(c32)c2nc3ccccc3n12
Numeric Readout: 83.3
//
Compound: CCOC(=O)c1cnc2ccc(Br)cc2c1Nc1cccc(S(=O)(=O)NC)c1
Numeric Readout: 100
//
Compound: CC/C=C\C[C@H](O)C/C=C1/C(=O)C=C[C@@H]1C/C=C\CCCC(=O)NC
Numeric Readout: 20.2
//
Compound: O=C(/C=C\c1cccc([N+](=O)[O-])c1)c1ccccc1
Numeric Readout: 111
//
Compound: CC(=O)C1=C(O)C=C2Oc3c(C(=O)/C=C/c4cc(Cl)cc(Cl)c4)c(O)c(C)c(O)c3[C@]2(C)C1=O
Numeric Readout: 0.163
//
Compound: COc1cc(-c2c3c(nc4c2c(C)nn4-c2ccccc2)-c2ccccc2C(=O)C3=O)cc(OC)c1OC
Numeric Readout: 103
//
Compound: Cc1sc2nc3[nH]/c(=C\c4ccc(Cl)cc4)c(=O)n3c(=O)c2c1C
Numeric Readout: 81.7
//
Compound: O=C(Nc1nc(-c2ccccc2)cc(-c2ccc(Cl)cc2)n1)c1ccncc1
Numeric Readout: 104
//
Compound: O=C1c2cc3c(cc2-c2c1c1cc(Cl)c(Cl)cc1c(=O)n2CCCn1ccnc1)OCO3
Numeric Readout: 25.9
//
Compound: COc1ccc(CN2C(=O)/C(=C\c3cc(OC)c(OC)c(OC)c3)c3cc(OC)ccc32)cc1
Numeric Readout: 15
//
Compound: CSc1nc(NCCO)c(C#N)c(-c2cccc(N)c2)n1
Numeric Readout: 96.2
//
Compound: Cn1c(=O)c2[nH]c(C(O)C(O)C(O)C(O)CO)nc2n(C)c1=O (centres undefined)
Numeric Readout: 101
//
Compound: CN(CC(=O)N(Cc1ccc(C2CCCCC2)cc1)c1ccc(C(=O)NO)cc1)S(=O)(=O)c1c(F)c(F)c(F)c(F)c1F
Numeric Readout: 104
//
Compound: C=C1CCC2C3(C)COC(c4ccccc4Br)OC3CCC2(C)C1C/C=C1/C(=O)OCC1OC(C)=O (centres undefined)
Numeric Readout: -38.3
//
Compound: CCN(CC)CC(O)CNc1c2ccc([N+](=O)[O-])cc2nc2cc(OC)c(OC)cc12 (centres undefined)
Numeric Readout: 10

* * *

- System: HOP-62 NSCLC
- Assay Details: NCI-60 one-dose screen, 48 h
- Condition Description: 10 µM unless noted
Compounds without any hit were thinned out: in the full panel of roughly 83,000, 20% have a hit. The source made the active and inactive calls. The calls were made as follows: active = growth percent below 10; inactive = the rest.
Labels: True for active, False for inactive

Compound: CCCCN(CC)CCCCCCCCCCN1CCCc2cc(OC)ccc21
Assigned Category: False
//
Compound: O=C1c2cccnc2C(=O)c2c1c(C(=O)OCCN1CCCCC1)c1ccccn21
Assigned Category: True
//
Compound: OCCNCCNc1c2ccccc2nc2ccccc12
Assigned Category: False
//
Compound: Oc1ccc2c(=S)cc(-c3ccc(Br)cc3)oc2c1O
Assigned Category: False
//
Compound: CC(=O)Oc1ccc(Nc2c3ccccc3nc3ccccc23)cc1
Assigned Category: False
//
Compound: O=C1C[C@H](N2C(=O)c3ccccc3S2(=O)=O)C2CO[C@@H]1O2
Assigned Category: False
